Source: ChEMBL document CHEMBL1151461

# test.method.notes: Inhibition of HIV1 RNase H by FRET high-throughput assay
# Parameters: species or system Human immunodeficiency virus 1
measurement.name: pIC50
Value format note: pIC50 is -log10 of concentration (mol/L); just state the number.

Worked set:
{"columns": ["molecule", "measurement.name", "observed.value"],
 "data": [
  ["CCCn1ncc2cc3c(c(O)c2c1=O)-c1c(O)c2c(c(OC)c1CC3)C(=O)c1c(cc(O)c(C)c1O)C2=O", "pIC50", 5.05],
  ["COc1c2c(c(O)c3c1C(=O)c1c(cc(O)c(C)c1O)C3=O)-c1c(cc(C3NCc4ccccc4N3)c(C(=O)O)c1O)CC2 (configuration not stated)", "pIC50", 5.23],
  ["COc1c2c(c(O)c3c1C(=O)c1c(cc(O)c(C)c1O)C3=O)-c1c(cc3cnn(-c4ccccc4)c(=O)c3c1O)CC2", "pIC50", 5.59]
]}

What value of measured pIC50 is listed for COc1c2c(c(O)c3c1C(=O)c1c(cc(O)c(C)c1O)C3=O)-c1c(cc3cnn(CCOC(C)=O)c(=O)c3c1O)CC2 ?
5.06

What value of measured pIC50 is listed for COc1c2c(c(O)c3c1C(=O)c1c(cc(O)c(C)c1O)C3=O)-c1c(cc(/C=N/NC(=O)c3ccccc3O)c(C(=O)O)c1O)CC2 ?
5.45

What value of measured pIC50 is listed for COc1c2c(c(O)c3c1C(=O)c1c(cc(O)c(C)c1O)C3=O)-c1c(cc(/C=N/NC(=N)N)c(C(=O)O)c1O)CC2 ?
5.25

What value of measured pIC50 is listed for COc1c2c(c(O)c3c1C(=O)c1c(cc(O)c(C)c1O)C3=O)-c1c(cc(/C=N/NC(=O)c3ccccc3)c(C(=O)O)c1O)CC2 ?
5.51

What value of measured pIC50 is listed for COc1c2c(c(O)c3c1C(=O)c1c(cc(O)c(C)c1O)C3=O)-c1c(cc(/C=N/NS(=O)(=O)c3ccc(C)cc3)c(C(=O)O)c1O)CC2 ?
5.23

What value of measured pIC50 is listed for CO/N=C/c1cc2c(c(O)c1C(=O)O)-c1c(O)c3c(c(OC)c1CC2)C(=O)c1c(cc(O)c(C)c1O)C3=O ?
5.00

---

# Ratio IC50 listing for each entry below
# Tested on: Human immunodeficiency virus 1
# test.method.notes: Selectivity, ratio of IC50 for HIV1 recombinant integrase to IC50 for HIV1 RNase H

Worked set:
{"columns": ["molecule", "Ratio IC50"],
 "data": [
  ["COc1c2c(c(OC(C)=O)c3c1C(=O)c1c(cc(OC(C)=O)c(C)c1OC(C)=O)C3=O)-c1c(cc3cnn(-c4ccccc4)c(=O)c3c1OC(C)=O)CC2", 100],
  ["COc1c2c(c(O)c3c1C(=O)c1c(cc(O)c(C)c1O)C3=O)-c1c(cc3c(c1O)C(=O)N1c4ccccc4SC31)CC2 (stereo not given)", 10],
  ["COc1c2c(c(O)c3c1C(=O)c1c(cc(O)c(C)c1O)C3=O)-c1c(cc3c(c1O)C(=O)N1c4ccccc4CNC31)CC2 (stereo not given)", 100],
  ["COc1c2c(c(O)c3c1C(=O)c1c(cc(O)c(C)c1O)C3=O)-c1c(cc(/C=N/NC(C)(C)C)c(C(=O)O)c1O)CC2", "> 100"]
]}

Kindly consider the entry below.
What value of measured Ratio IC50 is listed for COC(=O)Oc1cc2c(c(O)c1C)C(=O)c1c(OC)c3c(c(O)c1C2=O)-c1c(cc2cnn(-c4ccccc4)c(=O)c2c1O)CC3 ?
100

---

# log10(IC50) listing for each entry below
# measured.target: Human immunodeficiency virus type 1 integrase (Human immunodeficiency virus 1, UniProt Q7ZJM1)
# Sequence (Q7ZJM1 whole entry): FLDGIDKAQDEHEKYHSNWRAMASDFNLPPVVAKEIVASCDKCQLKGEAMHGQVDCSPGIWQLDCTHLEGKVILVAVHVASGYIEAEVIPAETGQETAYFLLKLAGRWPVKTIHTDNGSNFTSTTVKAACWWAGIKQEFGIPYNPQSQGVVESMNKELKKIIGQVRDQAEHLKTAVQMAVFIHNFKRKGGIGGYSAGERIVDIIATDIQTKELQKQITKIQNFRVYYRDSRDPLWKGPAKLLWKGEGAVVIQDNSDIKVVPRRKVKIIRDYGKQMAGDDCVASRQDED
# test.method.notes: Inhibition of HIV1 recombinant integrase by electrochemiluminescent-based high-throughput strand transfer assay
Log10 applied to IC50; unit prior to transform: µM.

Worked set:
{"columns": ["molecule", "log10(IC50)"],
 "data": [
  ["COc1c2c(c(O)c3c1C(=O)c1c(cc(O)c(C)c1O)C3=O)-c1c(cc3c(c1O)C(=O)N(N(C)C)C3O)CC2 (stereo not drawn)", 0.89],
  ["COc1c2c(c(O)c3c1C(=O)c1c(cc(O)c(C)c1O)C3=O)-c1c(cc(C(=O)O)c(C(=O)O)c1O)CC2", 1.12],
  ["COC(=O)Oc1cc2c(c(O)c1C)C(=O)c1c(OC)c3c(c(O)c1C2=O)-c1c(cc2cnn(-c4ccccc4)c(=O)c2c1O)CC3", 2.30],
  ["COc1c2c(c(O)c3c1C(=O)c1c(cc(O)c(C)c1O)C3=O)-c1c(cc3c(c1O)C(=O)N1c4ccccc4SC31)CC2 (stereo not drawn)", 1.98],
  ["COc1c2c(c(O)c3c1C(=O)c1c(cc(O)c(C)c1O)C3=O)-c1c(cc3c(c1O)C(=O)N1C(C(=O)O)CSC31)CC2 (stereo not drawn)", 1.30]
]}

What value of measured log10(IC50) is listed for COc1c2c(c(O)c3c1C(=O)c1c(cc(O)c(C)c1O)C3=O)-c1c(cc3c(c1O)C(=O)N1CCCNC31)CC2 (stereo not drawn) ?
1.75

What value of measured log10(IC50) is listed for COc1c2c(c(O)c3c1C(=O)c1c(cc(O)c(C)c1O)C3=O)-c1c(cc3c(c1O)C(=O)N1c4ccccc4CNC31)CC2 (stereo not drawn) ?
2.03

---

# test.method.notes: Inhibition of HIV1 RNase H by FRET high-throughput assay
# Parameters: species or system Human immunodeficiency virus 1
measurement.name: IC50 (µM)
Response body: numeric value in µM, unit text excluded.

{"columns": ["compound", "IC50 (µM)"],
 "data": [
  ["COc1c2c(c(O)c3c1C(=O)c1c(cc(O)c(C)c1O)C3=O)-c1c(cc(/C=N/NC(C)(C)C)c(C(=O)O)c1O)CC2", 0.69]
]}

What value of measured IC50 is listed for CCCn1ncc2cc3c(c(OC(C)=O)c2c1=O)-c1c(c(OC)c2c(c1OC(C)=O)C(=O)c1cc(OC(C)=O)c(C)c(OC(C)=O)c1C2=O)CC3 ?
10.5

What value of measured IC50 is listed for COc1c2c(c(O)c3c1C(=O)c1c(cc(O)c(C)c1O)C3=O)-c1c(cc3c(c1O)C(=O)N1CCCNC31)CC2 (stereo not drawn) ?
7.16

---

# test.method.notes: Inhibition of HIV1 RNase H by FRET high-throughput assay
# Parameters: species or system Human immunodeficiency virus 1
measurement.name: IC50 (µM)
Response body: numeric value in µM, unit text excluded.

Worked set:
{"columns": ["compound", "IC50 (µM)"],
 "data": [
  ["COc1c2c(c(O)c3c1C(=O)c1c(cc(O)c(C)c1O)C3=O)-c1c(cc(C(=O)O)c(C(=O)O)c1O)CC2", 3.48],
  ["COC(=O)Oc1cc2c(c(O)c1C)C(=O)c1c(OC)c3c(c(O)c1C2=O)-c1c(cc2cnn(-c4ccccc4)c(=O)c2c1O)CC3", 1.43],
  ["COc1c2c(c(O)c3c1C(=O)c1c(cc(O)c(C)c1O)C3=O)-c1c(cc3cnn(C(=N)N)c(=O)c3c1O)CC2", 5.28],
  ["COc1c2c(c(O)c3c1C(=O)c1c(cc(O)c(C)c1O)C3=O)-c1c(cc3c(c1O)C(=O)N1C(C(=O)O)CSC31)CC2 (stereo not given)", 15.7]
]}

What value of measured IC50 is listed for COc1c2c(c(OCc3ccccc3)c3c1C(=O)c1c(cc(OCc4ccccc4)c(C)c1OCc1ccccc1)C3=O)-c1c(cc3cnn(CC(=O)O)c(=O)c3c1OCc1ccccc1)CC2 ?
22.4
